Recorded viability, T/C values for a group of molecules are listed next.
Test system: MDA-MB-468 complex spheroids with HUVEC/MSC, viability
Experiment: Anticancer human tumor MDA-MB-468 cell line growth inhibition;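 note: spheroids exposed to agents for seven days; 100% = DMSO vehicle control viability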
Conditions: second compound 0.1 µM; first compound 0.3 µM; active compounds read low
Source text: Multicellular complex tumor spheroid response to LSD1 Inhibitor Iadademstat in combination with a variety of drugs and investigational agents in selected tumor cell lines The current study was undertaken to assess response to LSD1 inhibitors in combination with standard-of-care drugs and investigational agents in solid tumor complex spheroid models as well as in the K-562 leukemia. […] Compounds. […] If the clinical Cmax for an agent had not been determined, the highest concentration tested was 10 microM. […]
Write down the numeric answer in % and omit the unit.

Use the examples below as a reference point.
- Molecule: "O=C(C=Cc1cccc(S(=O)(=O)Nc2ccccc2)c1)NO + NC1CCC(NC2CC2c2ccccc2)CC1"
  Units Of Measure: "%"
  viability, T/C: 15
- Molecule: "CCc1c2c(nc3ccc(O)cc13)-c1cc3c(c(=O)n1C2)COC(=O)[C@]3(O)CC + NC1CC1c1ccc(-c2cccc(O)c2)cc1"
  Units Of Measure: "%"
  viability, T/C: 0.53
- Molecule: "O=C(C=Cc1cccc(S(=O)(=O)Nc2ccccc2)c1)NO + NC1CC1c1ccc(-c2cccc(O)c2)cc1"
  Units Of Measure: "%"
  viability, T/C: 2.15

Returns the measured viability, T/C for the input molecule. Input: CCN(c1cc(-c2ccc(CN3CCOCC3)cc2)cc(C(=O)NCc2c(C)cc(C)[nH]c2=O)c1C)C1CCOCC1 + NC1CC1c1ccc(-c2cccc(O)c2)cc1
42.8

---

tested on: MDA-MB-468 complex spheroids with HUVEC/MSC, viability; experiment: Anticancer human tumor MDA-MB-468 cell line growth inhibition; conditions: second compound 1 µM; first compound 0.3 µM; active compounds read low;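 note: spheroids exposed to agents for seven days; 100% = DMSO vehicle control viability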
Listed next: entries and their corresponding viability, T/C.
Unit % implied. Number only.

Sample records with viability, T/C:
- Compound: "Nc1ccn(C2OC(CO)C(O)C2(F)F)c(=O)n1 (stereo not given) + NC1CC1c1ccc(-c2cccc(O)c2)cc1"
  Units Of Measure: "%"
  Result: 3.33
- Compound: "Nc1ccccc1NC(=O)c1ccc(CNC(=O)OCc2cccnc2)cc1 + NC1CC1c1ccc(-c2cccc(O)c2)cc1"
  Units Of Measure: "%"
  Result: 2.4
- Compound: "CCc1c2c(nc3ccc(O)cc13)-c1cc3c(c(=O)n1C2)COC(=O)[C@]3(O)CC + NC1CCC(NC2CC2c2ccccc2)CC1"
  Units Of Measure: "%"
  Result: 2.02
- Compound: "O=C(C=Cc1cccc(S(=O)(=O)Nc2ccccc2)c1)NO + NC1CC1c1ccc(-c2cccc(O)c2)cc1"
  Units Of Measure: "%"
  Result: 2.36

Please find the next compound below.
Any idea what viability, T/C was measured for NS(=O)(=O)OCC1CC(n2ccc3c(NC4CCc5ccccc54)ncnc32)CC1O (stereo not given) + NC1CCC(NC2CC2c2ccccc2)CC1 ?
9.7

---

system: MDA-MB-468 complex spheroids with HUVEC/MSC, viability; experiment: Anticancer human tumor MDA-MB-468 cell line growth inhibition; conditions: second compound 0.1 µM; first compound 0.00949 µM; active = viability on the fitted dose curve at most 10% of control; inactive = the rest;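 note: spheroids exposed to agents for seven days; 100% = DMSO vehicle control viability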
Log the outcome using a class from active, inactive

- Molecule: "CCN(c1cc(-c2ccc(CN3CCOCC3)cc2)cc(C(=O)NCc2c(C)cc(C)[nH]c2=O)c1C)C1CCOCC1 + NC1CC1c1ccc(-c2cccc(O)c2)cc1"
  Measured On: "MDA-MB-468 complex spheroids with HUVEC/MSC, viability"
  Category: "inactive"

// param item: O=C(C=Cc1cccc(S(=O)(=O)Nc2ccccc2)c1)NO + NC1CC1c1ccc(-c2cccc(O)c2)cc1 ; yields the recorded call
inactive

Record request — test call for Nc1ccccc1NC(=O)c1ccc(CNC(=O)OCc2cccnc2)cc1 + NC1CC1c1ccc(-c2cccc(O)c2)cc1
inactive

Entry CCc1c2c(nc3ccc(O)cc13)-c1cc3c(c(=O)n1C2)COC(=O)[C@]3(O)CC + NC1CC1c1ccc(-c2cccc(O)c2)cc1 : call = ?
active

Assay outcome for COc1cc(C2c3cc4c(cc3C(OC3OC5COC(C)OC5C(O)C3O)C3COC(=O)C23)OCO4)cc(OC)c1O (stereo not drawn) + NC1CC1c1ccc(-c2cccc(O)c2)cc1 : what was it?
inactive

For this molecule, state the assay outcome: COc1cc(C2c3cc4c(cc3C(OC3OC5COC(C)OC5C(O)C3O)C3COC(=O)C23)OCO4)cc(OC)c1O (stereo not drawn) + NC1CCC(NC2CC2c2ccccc2)CC1
inactive

Call for entry CCN(c1cc(-c2ccc(CN3CCOCC3)cc2)cc(C(=O)NCc2c(C)cc(C)[nH]c2=O)c1C)C1CCOCC1 + NC1CCC(NC2CC2c2ccccc2)CC1 :
inactive

Status in this test for Nc1ncn(C2CC(O)C(CO)S2)c(=O)n1 (stereo not drawn) + NC1CCC(NC2CC2c2ccccc2)CC1 ?
inactive

The values you see were collected from PubChem BioAssay AID1918954.
